- Tgt: α1a-AR (Homo sapiens, UniProt P35348)
- Construct: expressed in transfected cells; host or cells: COS-7 cells (African Green monkey kidney), membranes
- Sequence (P35348 whole entry): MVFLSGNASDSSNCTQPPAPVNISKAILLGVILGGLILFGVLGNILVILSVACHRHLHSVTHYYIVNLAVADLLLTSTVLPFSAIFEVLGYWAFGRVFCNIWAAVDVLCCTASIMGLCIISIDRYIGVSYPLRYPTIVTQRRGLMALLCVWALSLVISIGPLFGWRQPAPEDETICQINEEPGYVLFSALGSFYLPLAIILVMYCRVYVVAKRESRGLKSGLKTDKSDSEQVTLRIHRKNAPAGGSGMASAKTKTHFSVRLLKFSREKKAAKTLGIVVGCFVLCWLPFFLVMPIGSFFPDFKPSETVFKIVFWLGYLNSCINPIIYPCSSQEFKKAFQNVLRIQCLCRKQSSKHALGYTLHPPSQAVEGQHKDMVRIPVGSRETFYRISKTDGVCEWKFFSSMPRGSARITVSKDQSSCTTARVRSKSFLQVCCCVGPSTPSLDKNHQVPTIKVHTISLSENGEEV
- Assay Protocol: α1-Adrenergic Receptor Binding Assay, 125I-HEAT radio-ligand binding, transfected COS-7 cell membranes, α1a subtype
- Cond: average value, COS-7 membranes, read-out: Alpha 1 Ki α1a (1) Average Value
Quantity: Ki (nM)

Consider the following illustrative entries.
In [3]: df
Out[3]:
                                   compound  observed_result
0  CC(C)Oc1ccccc1N1CCN(CC2CC(CN3CCc4ccc(NCc5ccccc5F)cc43)=NO2)CC1 (stereo not drawn) [Compound 8]              6.9
1  CC(C)Oc1ccccc1N1CCN(CC2CC(C(=O)N3CCc4ccc(NCc5ccccc5F)cc43)=NO2)CC1 (stereo not drawn) [Compound 15]              9.6
2  CC(C)Oc1ccccc1N1CCN(CC2CC(C(=O)N3CCCc4ccccc43)=NO2)CC1 (stereo not drawn) [Compound 26]              6.7
3  Cc1ccc2c(c1)CCN2C(=O)C1=NOC(CN2CCN(c3ccccc3OC(C)C)CC2)C1 (stereo not drawn) [Compound 25]              3.5
4  CC(C)Oc1ccccc1N1CCN(CC2CC(C(=O)N3CC(C)(C)c4cc(Br)ccc43)=NO2)CC1 (single isomer, unassigned) [Compound 42]             5.87
5  CC(C)Oc1ccccc1N1CCN(CC2CC(C(=O)N3CCC(C(=O)c4ccc(F)cc4)CC3)=NO2)CC1 (single isomer, unassigned) [Compound 40]             6.44
6  CC(C)Oc1ccccc1N1CCN(CC2CC(CN3CCCCC3)=NO2)CC1 (stereo not drawn) [Compound 5]               10
7  CC(C)Oc1ccccc1N1CCN(CC2CC(CN3CCCCC3=O)=NO2)CC1 (single isomer, unassigned) [Compound 3]              2.5

(1) CC(C)Oc1ccccc1N1CCN(CC2CC(C(=O)N3CCC(C(=O)c4ccc(F)cc4)CC3)=NO2)CC1 (stereo not drawn) [Compound 18]
(2) CC(C)Oc1ccccc1N1CCN(CC2CC(C(=O)N3CCOCC3)=NO2)CC1 (single isomer, unassigned) [Compound 45]
(3) CC(C)Oc1ccccc1N1CCN(CC2CC(C(=O)N3CCOCC3)=NO2)CC1 (single isomer, unassigned) [Compound 44]
Ask | Exam item: list the entries in increasing order of Ki. // respond by listing labels in the order requested
Reply | 3, 1, 2
